Each entry below carries its recorded pEC50.
TARGET_OR_SYSTEM: RORγ-LBD (Homo sapiens, UniProt P51449)
PROTOCOL_NOTES: RORγ-Ligand Binding Domain (LBD) TR-FRET Assay
pEC50: −log10 of the molar value.

| COMPOUND | TARGET_OR_SYSTEM | pEC50 |
| --- | --- | --- |
| O=C1CC[C@@](C[C@H]2CN(S(=O)(=O)c3cccc(C(F)(F)F)c3)c3cc(-c4cc(F)ccc4F)ccc3O2)(C(=O)O)N1 [Compound 75] | RORγ-LBD (Homo sapiens, UniProt P51449) | > 6.30 |
| CCOc1cccc(-c2ccc3c(c2)N(S(=O)(=O)c2cccc(C(F)(F)F)c2)C[C@H](CCC(=O)O)O3)c1F [Compound 4AA] | RORγ-LBD (Homo sapiens, UniProt P51449) | > 6.30 |
| Cc1cc(F)cc(-c2ccc3c(c2)N(S(=O)(=O)c2cccc(C(F)(F)F)c2)C[C@H](CCC(=O)O)O3)c1 [Compound 2BN] | RORγ-LBD (Homo sapiens, UniProt P51449) | > 6.30 |
| Cn1nccc1-c1ccc2c(c1)N(S(=O)(=O)c1cccc(C(F)(F)F)c1)C[C@H](CCC(=O)O)O2 [Compound 2AR] | RORγ-LBD (Homo sapiens, UniProt P51449) | 5.30 to 6.30 |
| O=C(O)CC[C@H]1CN(S(=O)(=O)c2cccc(C(F)(F)F)c2)c2cc(-c3cccc(OCCO)c3)ccc2O1 [Compound 4AB] | RORγ-LBD (Homo sapiens, UniProt P51449) | < 5.00 |
| O=C(O)CC[C@H]1CN(S(=O)(=O)c2cccc(C(F)(F)F)c2)c2cc(-c3cc(F)cc(C(F)(F)F)c3)ccc2O1 [Compound 2AE] | RORγ-LBD (Homo sapiens, UniProt P51449) | > 6.30 |
| CC(=O)NC[C@H]1CN(S(=O)(=O)c2cccc(C(F)(F)F)c2)c2cc(-c3cc(F)ccc3F)ccc2O1 [Compound 30BD] | RORγ-LBD (Homo sapiens, UniProt P51449) | > 6.30 |

* * *

TARGET_OR_SYSTEM: Gal4-RORγ-LBD (Homo sapiens)
Construct: expressed in transfected cells; host or cells: HEK-293 cells (pcDNA3.1neo plasmid)
Sequence (P51449 269-508 limits assumed): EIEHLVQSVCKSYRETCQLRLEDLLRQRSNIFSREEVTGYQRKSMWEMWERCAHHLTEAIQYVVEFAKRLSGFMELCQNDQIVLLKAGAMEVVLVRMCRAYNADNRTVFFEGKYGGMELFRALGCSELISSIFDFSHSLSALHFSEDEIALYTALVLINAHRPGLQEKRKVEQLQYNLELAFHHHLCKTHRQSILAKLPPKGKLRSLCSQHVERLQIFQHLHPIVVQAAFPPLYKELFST
PROTOCOL_NOTES: Gal4-RORγ Luciferase Reporter Assay in HEK-293T Cells
Type: cell-based
PROTOCOL_CONDITIONS: HEK-293 cells, luciferase reporter, with 2 μM ursolic acid
pEC50: −log10 of the molar value.
Each entry below carries its recorded pEC50.

| COMPOUND | pEC50 |
| --- | --- |
| O=C(NC[C@H]1CN(S(=O)(=O)c2cccc(C(F)(F)F)c2)c2cc(-c3cc(F)ccc3F)ccc2O1)[C@H]1C[C@H]1F [Compound 30AN] | > 6.30 |
| CC(C)c1cccc(S(=O)(=O)N2C[C@H](CCNC(=O)C(C)(C)O)Oc3ccc(-c4cc(F)ccc4F)cc32)c1 [Compound 30D] | > 6.30 |
| O=C(O)CC[C@H]1CN(S(=O)(=O)c2cccc(C(F)(F)F)c2)c2cc(-c3cc(F)cc(C(F)(F)F)c3)ccc2O1 [Compound 2AE] | > 6.30 |
| COc1c(F)cc(F)cc1-c1ccc2c(c1)N(S(=O)(=O)c1cccc(C(F)(F)F)c1)C[C@H](CCC(=O)O)O2 [Compound 2BC] | > 6.30 |
| O=C(O)CC[C@H]1CN(S(=O)(=O)c2cccc(C(F)(F)F)c2)c2cc(-c3cccc(C(F)(F)F)c3)ccc2O1 [Compound 2G] | > 6.30 |
| O=C(O)CC[C@H]1CN(S(=O)(=O)c2cccc(C(F)(F)F)c2)c2cc(-c3cccc4ccnn34)ccc2O1 [Compound 4V] | 5.30 to 6.30 |
| COc1cccc(-c2cc(F)c3c(c2)N(S(=O)(=O)c2cccc(C(F)(F)F)c2)C[C@H](CCC(=O)O)O3)c1 [Compound 22D] | > 6.30 |
| O=C(O)CC[C@H]1CN(S(=O)(=O)c2cccc(C(F)(F)F)c2)c2cc(-c3cccc(Cl)c3F)ccc2O1 [Compound 2R] | > 6.30 |
| O=C(O)CC[C@H]1CN(S(=O)(=O)c2cccc(Cl)c2)c2cc(-c3cccc(Cl)c3)ccc2O1 [Compound 6B] | 5.30 to 6.30 |
| O=C(O)CCNC(=O)CC[C@H]1CN(S(=O)(=O)c2cccc(C(F)(F)F)c2)c2cc(-c3cccc(Cl)c3)ccc2O1 [Compound 23D] | > 6.30 |
| COc1ccc(-c2ccc3c(c2)N(S(=O)(=O)c2cccc(C(F)(F)F)c2)C[C@H](CCC(=O)O)O3)cc1Cl [Compound 2AN] | > 6.30 |
| O=C(O)CC[C@H]1CN(S(=O)(=O)c2cccc(C(F)(F)F)c2)c2cc(-c3cccc(Cl)n3)ccc2O1 [Compound 4I] | > 6.30 |
| O=C(CC[C@H]1CN(S(=O)(=O)c2cccc(C(F)(F)F)c2)c2cc(-c3cc(F)ccc3F)ccc2O1)NC[C@H](O)C(=O)O [Compound 23S] | 5.30 to 6.30 |
| Cc1cc(-c2ccc3c(c2)N(S(=O)(=O)c2cccc(C(F)(F)F)c2)C[C@H](CCC(=O)O)O3)nc(N(C)C)c1 [Compound 4AN] | > 6.30 |
